# assay_target: VirB (Shigella flexneri, UniProt P0A247)
# Construct: purified recombinant wild-type VirB, His6-SUMO tag removed; encoded on virulence plasmid pINV
# Sequence (P0A247 whole entry): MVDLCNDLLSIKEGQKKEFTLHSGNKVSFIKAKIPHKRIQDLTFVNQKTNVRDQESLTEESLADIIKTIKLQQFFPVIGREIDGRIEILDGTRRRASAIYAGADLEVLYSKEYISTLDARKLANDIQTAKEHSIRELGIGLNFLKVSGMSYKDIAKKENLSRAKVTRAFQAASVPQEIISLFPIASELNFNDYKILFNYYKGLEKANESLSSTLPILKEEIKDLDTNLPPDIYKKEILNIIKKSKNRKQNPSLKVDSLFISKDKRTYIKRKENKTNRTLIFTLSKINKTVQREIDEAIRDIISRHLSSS
# test_name: isothermal titration calorimetry
# Format: binding
pKd: −log10 of the molar value.
measured_attribute: pKd

stdin: Fill in: pKd of Nc1ccn([C@@H]2O[C@H](COP(=O)(O)OP(=O)(O)OP(O)(O)=S)[C@@H](O)[C@H]2O)c(=O)n1 is ___
stdout: ~4.92

###

# assay_target: VirB (Shigella flexneri)
# Construct: purified recombinant wild-type VirB, His6-SUMO tag removed; encoded on virulence plasmid pINV
# test_name: microscale thermophoresis; supported by HDX-MS, crosslinking and weak CTPase activity
# Type: binding
measured_attribute: Kd (µM)
Use µM as the unit, but write only the number.

stdin: GET /values?readout=Kd&item= Nc1ccn([C@@H]2O[C@H](COP(=O)(O)OP(=O)(O)OP(=O)(O)O)[C@@H](O)[C@H]2O)c(=O)n1
stdout: 11
